test system: human LIM domain kinase 1 mRNA; assay: Antisense inhibition of human LIM domain kinase 1 mRNA levels, quantitative real-time PCR, A549 cells (screen); type: cell-based; conditions: quantitative real-time PCR, averages from two experiments, screening concentration not given (50 nM to 300 nM used herein)
Strand notation (5' to 3'): a small letter for the sugar, then the base; units joined by * are phosphorothioate-linked, units joined directly phosphodiester-linked; [ ] holds rarer units or linkages, { } end groups; capitals alone tell only the bases. e = 2'-O-(2-methoxyethyl) (MOE); [5mC] = 5-methylcytosine; d = 2'-deoxy (DNA)
readout_kind: % INHIB (inhibition of human LIM domain kinase 1 mRNA levels) (%)

[
  {
    "substance": "206228 (antisense eA*e[5mC]*eT*eG*e[5mC]*d[5mC]*dT*d[5mC]*dT*d[5mC]*dG*dG*dG*dT*dT*e[5mC]*eA*eA*eG*e[5mC]) [compound 206228]",
    "test_value": 69
  },
  {
    "substance": "206222 (antisense eG*eG*eT*eG*eG*dG*dT*d[5mC]*d[5mC]*d[5mC]*dA*d[5mC]*d[5mC]*dT*d[5mC]*e[5mC]*e[5mC]*eT*eA*eA) [compound 206222]",
    "test_value": 63
  },
  {
    "substance": "206213 (antisense e[5mC]*e[5mC]*e[5mC]*eT*eG*dA*dG*dG*d[5mC]*dT*dT*dG*dG*dT*dA*e[5mC]*e[5mC]*eT*eG*e[5mC]) [compound 206213]",
    "test_value": 14
  },
  {
    "substance": "206164 (e[5mC]*eA*eG*eG*eT*dG*d[5mC]*dA*dA*d[5mC]*dA*dA*dA*dG*dT*eA*eG*e[5mC]*eG*eT; antisense) [compound 206164]",
    "test_value": 75
  },
  {
    "substance": "206218 (antisense eT*eG*eA*eG*eA*dA*dA*dG*d[5mC]*dT*dT*d[5mC]*dA*d[5mC]*dA*eG*eT*eT*eT*eT) [compound 206218]",
    "test_value": 43
  },
  {
    "substance": "206189 (antisense eG*eT*eT*eT*e[5mC]*dT*dG*d[5mC]*d[5mC]*dG*dG*dG*d[5mC]*dA*dG*eA*eG*e[5mC]*eT*eG) [compound 206189]",
    "test_value": 81
  },
  {
    "substance": "206201 (antisense eA*eG*eG*eT*eA*dG*dG*d[5mC]*d[5mC]*dA*dT*d[5mC]*d[5mC]*d[5mC]*dT*eG*eA*eT*eG*e[5mC]) [compound 206201]",
    "test_value": 74
  },
  {
    "substance": "206173 (eA*eG*eT*eA*eG*dT*d[5mC]*d[5mC]*dT*dT*d[5mC]*dT*dT*dG*d[5mC]*eA*eG*eA*eA*eG; antisense) [compound 206173]",
    "test_value": 71
  },
  {
    "substance": "206167 (eA*eT*eA*e[5mC]*eG*dT*dT*d[5mC]*dT*dT*d[5mC]*d[5mC]*d[5mC]*dT*d[5mC]*e[5mC]*eA*eG*eG*eT; antisense) [compound 206167]",
    "test_value": 85
  },
  {
    "substance": "206234 (antisense e[5mC]*eA*eT*eT*e[5mC]*dT*dT*dG*dT*dT*d[5mC]*dT*dG*dG*dG*eA*eA*eG*eG*eT) [compound 206234]",
    "test_value": 61
  },
  {
    "substance": "206232 (antisense eA*eT*eG*e[5mC]*eT*dG*d[5mC]*dA*dG*d[5mC]*dT*d[5mC]*d[5mC]*dT*d[5mC]*e[5mC]*eT*eG*eG*eG) [compound 206232]",
    "test_value": 81
  }
]
